All values here come from ChEMBL document CHEMBL1201862.

Test system: ACHN
assay.text: NCI tumour cell line growth inhibition, 48 h
Activity calls are given as the source filed them. Rule as the data show it: active = GI50 up to about 1.1 µM and inactive = higher.
readout.name: GI50

Query: What value of GI50 has been reported for the following molecule? COc1c(C)c(C/C=C(\C)CC/C=C(\C)CC/C=C(\C)CCC=C(C)C)c(OC)c(OC)c1OC
Result: > 100 µM (inactive)

Query: Entry CCOCc1c(C)cc(C)c(C2C(C(=O)c3ccccc3)N3c4ccccc4C=CC3C2(C#N)C(=O)OCC)c1C (stereo unspecified) : reported GI50 = ?
Result: 50.9 µM (inactive)

Query: GET /values?readout=GI50&item= N#CCCN(CCCN(C(=O)Nc1ccccc1)c1ccccc1)C(=O)Nc1ccccc1
Result: > 100 µM (inactive)

Query: Please give the measured GI50 for this molecule: C=C1C(=O)O[C@@H]2C[C@]3(C)[C@@H](C[C@H]12)[C@](C)(O)CC[C@@H]3O
Result: > 100 µM (inactive)

Query: Form field: reported GI50 of N#Cc1c(C#N)c(SSc2c(C#N)c(C#N)c(N)n2-c2ccc(F)cc2)n(-c2ccc(F)cc2)c1N
Result: 3.66 µM (inactive)

Query: Recorded GI50 for C[C@@H](c1ccccc1)N1CO[C@@]2(C#Cc3ccc4c(c3)OCO4)CCC[C@@H]12 , please?
Result: > 100 µM (inactive)

Query: So what's the measured GI50 for this one? CC(=O)n1cc(CC(C)O)c(=O)[nH]c1=O (stereo unspecified)
Result: > 100 µM (inactive)

Query: I am curious: what GI50 value has been reported for C=C(Cl)COC(=O)Nc1cccc(Cl)c1 ?
Result: 34.9 µM (inactive)

Query: If you can, please state the reported GI50 value of O=C(c1cccc(OCc2ccccc2)c1OCc1ccccc1)N1CCSC1=S .
Result: 33.8 µM (inactive)

Query: Value lookup for GI50; key = CCOC(=O)NC(C(F)(F)F)(C(F)(F)F)P(=O)(OC(C)C)OC(C)C
Result: > 100 µM (inactive)

Query: Which GI50 is listed for Cc1cc(Cl)ccc1NC(=O)C(=O)Cc1nc2ccc(C(=O)c3ccccc3)cc2nc1O ?
Result: > 100 µM (inactive)

Query: Item under review: O=c1n(-c2ccccc2)c(=O)n2n1C1C=CC2CCCCCC1 . Reported GI50?
Result: > 100 µM (inactive)

Query: Consider the molecule CCCCCCCCCCCCCCCC[N+](C)(C)Cc1ccc(F)cc1 and give its measured GI50.
Result: 3.07 µM (inactive)

Query: Please give the measured GI50 for this molecule: ClC1=NN=C(c2c[nH]c3ccccc23)CC1NCc1ccccc1 (stereo unspecified)
Result: > 100 µM (inactive)

Query: Could you tell me which GI50 is on file for c1ccc2c(c1)C1=NCCN1c1ccccc1-2 ?
Result: 2.11 µM (inactive)

Query: Request the reported GI50 associated with O=P(Nc1cccc(Cl)c1)(Oc1ccccc1)N(CCCl)CCCl (stereo unspecified)
Result: 16.7 µM (inactive)

Query: Which GI50 is reported for this molecule? CCCCCCCCCOC(=S)NC
Result: 19.3 µM (inactive)

Query: Field request: GI50 | item: COC(=O)N/N=C/c1oc(-c2cccc([N+](=O)[O-])c2)c(-c2cccc([N+](=O)[O-])c2)c1[N+](=O)[O-]
Result: > 100 µM (inactive)

Query: Record request: GI50 value, item CC(C)(C)NC(=O)[C@H]1CC[C@H]2[C@@H]3CC=C4NC(=O)CC[C@]4(C)[C@H]3CC[C@]12C
Result: > 100 µM (inactive)

Query: Entry COc1ccc(S(=O)(=O)N/N=C/C(=O)O)cc1 has what GI50?
Result: 354 µM (inactive)

Query: Which GI50 value is on record for CN(C)c1ccc(/C=C2\N=C(c3ccccc3)N(c3nc4ccc(Sc5ccccc5)cc4[nH]3)C2=O)cc1 ?
Result: 81.8 µM (inactive)
